Biological target: Human recombinant PDE2A (hPDE2A) (Homo sapiens)
Construct: made in house; host or cells: Sf9 insect cells (baculovirus)
Sequence (O00408 whole entry): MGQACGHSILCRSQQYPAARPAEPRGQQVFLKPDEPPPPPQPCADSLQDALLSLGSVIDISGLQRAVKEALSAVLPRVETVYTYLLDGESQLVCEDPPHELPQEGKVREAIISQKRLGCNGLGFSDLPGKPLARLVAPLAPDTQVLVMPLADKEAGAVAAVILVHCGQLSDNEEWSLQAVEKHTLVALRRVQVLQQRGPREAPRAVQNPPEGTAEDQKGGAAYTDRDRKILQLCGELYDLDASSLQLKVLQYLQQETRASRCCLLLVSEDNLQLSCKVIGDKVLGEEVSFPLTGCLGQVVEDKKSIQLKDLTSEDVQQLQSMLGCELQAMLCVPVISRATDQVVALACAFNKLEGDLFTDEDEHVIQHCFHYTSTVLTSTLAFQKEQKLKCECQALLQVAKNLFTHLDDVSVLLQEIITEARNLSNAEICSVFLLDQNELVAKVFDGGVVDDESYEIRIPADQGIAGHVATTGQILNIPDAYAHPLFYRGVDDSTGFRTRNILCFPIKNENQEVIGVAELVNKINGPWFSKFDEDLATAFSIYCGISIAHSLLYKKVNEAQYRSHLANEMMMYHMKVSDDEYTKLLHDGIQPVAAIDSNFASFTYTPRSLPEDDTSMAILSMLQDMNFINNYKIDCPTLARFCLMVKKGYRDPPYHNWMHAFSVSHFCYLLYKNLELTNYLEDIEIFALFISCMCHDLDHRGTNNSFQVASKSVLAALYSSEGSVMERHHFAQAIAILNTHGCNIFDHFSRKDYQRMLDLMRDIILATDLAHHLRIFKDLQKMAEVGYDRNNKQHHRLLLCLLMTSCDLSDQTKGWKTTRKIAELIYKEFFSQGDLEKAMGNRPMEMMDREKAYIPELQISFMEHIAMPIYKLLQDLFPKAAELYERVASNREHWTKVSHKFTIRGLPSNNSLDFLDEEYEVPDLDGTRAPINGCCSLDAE
Assay: In vitro assay PDE2A (SPA, 3H-cGMP)
Format: biochemical
Details: 10 μM cGMP substrate
Listing of entries alongside the reported Emax.
Give the quantity in %, number only.

// below: answered compounds
compound="COc1ccc(CN2CC[C@@H](C)[C@H](c3cc(C(F)F)nc4ncnn34)C2)c(OC)c1.Cl [Compound 45]" measured_target="Human recombinant PDE2A (hPDE2A) (Homo sapiens)" quantity_kind=Emax result_value=49
compound="Cc1cc(CN2CC[C@@H](C)[C@H](c3cc(C(F)F)nc4ncnn34)C2)ccn1.Cl [Compound 15]" measured_target="Human recombinant PDE2A (hPDE2A) (Homo sapiens)" quantity_kind=Emax result_value=95
compound="Cc1cc(C(C)N2CC[C@@H](C)[C@H](c3cc(C(F)F)nc4ncnn34)C2)cc(C)n1 (mixture of isomers) [Compound 1]" measured_target="Human recombinant PDE2A (hPDE2A) (Homo sapiens)" quantity_kind=Emax result_value=100

Okay, next one:
INPUT: // query Emax value for entry C[C@]1(c2cc(C(F)F)nc3ncnn23)CCCN(Cc2ccc(F)c(F)c2)C1.Cl (stereo in doubt) [Compound 54]
OUTPUT: 15
